Data credit: patent US6642271B2

For each entry below, report its number of living cells value.
test system: human breast adenocarcinoma MDA-MB-231 cell line; test: Cytotoxicity: cell growth inhibition in cultures, viable cells counted by trypan blue exclusion; format: cell-based; conditions: sodium salt in saline; final 10^−10 mol/L; day 1; three days

Query: Find the measured number of living cells of CC1=C(/C=C/C(C)=C/C=C/C(C)=C/C(=O)N[C@@H](CS(=O)(=O)O)C(=O)O)C(C)(C)CCC1 [Compound I, N-(all-trans-Retinoyl)-L-cysteic acid] and report it.
Result: 37.3 ± 2.84 × 10^3

Query: Find the measured number of living cells of CC1=C(/C=C/C(C)=C/C=C/C(C)=C\C(=O)N[C@@H](CS(=O)O)C(=O)O)C(C)(C)CCC1 and report it.
Result: 45.5 ± 2.68 × 10^3

Query: Find the measured number of living cells of CC1=C(/C=C/C(C)=C/C=C/C(C)=C/C(=O)N[C@@H](CS(=O)O)C(=O)O)C(C)(C)CCC1 and report it.
Result: 46.3 ± 2.49 × 10^3

---

For each entry below, report its inhibition at 1 µM value.
tested on: human breast adenocarcinoma MDA-MB-231 cell line; assay: Cytotoxicity: cell growth inhibition in cultures, viable cells counted by trypan blue exclusion; type: cell-based; details: Homo sapiens, MDA-MB-231, sodium salt in saline; final 10^−6 mol/L (top of range 10^−11 M to 10^−6 M); day 1; three days
Write down the numeric answer in % and omit the unit.

Query: Find the measured inhibition at 1 µM of CC1=C(/C=C/C(C)=C/C=C/C(C)=C/C(=O)N[C@@H](CS(=O)O)C(=O)O)C(C)(C)CCC1 and report it.
Result: 29.8

Query: Find the measured inhibition at 1 µM of CC1=C(/C=C/C(C)=C/C=C/C(C)=C/C(=O)N[C@@H](CCS(=O)(=O)O)C(=O)O)C(C)(C)CCC1 and report it.
Result: 36.1

Query: Find the measured inhibition at 1 µM of CC1=C(/C=C/C(C)=C/C=C/C(C)=C\C(=O)N[C@@H](CS(=O)O)C(=O)O)C(C)(C)CCC1 and report it.
Result: 27.3

Query: Find the measured inhibition at 1 µM of CC1=C(/C=C/C(C)=C/C=C/C(C)=C\C(=O)N[C@@H](CS(=O)(=O)O)C(=O)O)C(C)(C)CCC1 [Compound II, N-(13-cis-Retinoyl)-L-cysteic acid] and report it.
Result: 51.6

Query: Find the measured inhibition at 1 µM of CC1=C(/C=C/C(C)=C/C=C/C(C)=C/C(=O)N[C@@H](CS(=O)(=O)O)C(=O)O)C(C)(C)CCC1 [Compound I, N-(all-trans-Retinoyl)-L-cysteic acid] and report it.
Result: 49.7

Query: Find the measured inhibition at 1 µM of CC1=C(/C=C/C(C)=C/C=C/C(C)=C\C(=O)N[C@@H](CCS(=O)(=O)O)C(=O)O)C(C)(C)CCC1 [Compound IV, N-(13-cis-Retinoyl)-L-homocysteic acid] and report it.
Result: 31.9

---

For each entry below, report its inhibition at 0.1 µM value.
Test system: human breast adenocarcinoma MDA-MB-231 cell line
Test: Cytotoxicity: cell growth inhibition in cultures, viable cells counted by trypan blue exclusion
Assay type: cell-based
Conditions: Homo sapiens, MDA-MB-231, sodium salt in saline; final 10^−7 mol/L; day 1; three days
Experimental: The cell line was propagated by cultivation in Nunclon 25 cm^2 flasks (Nunc A/S, Denmark) in Minimum Essential Medium Eagle (MEM), containing antibiotics and supplemented with 10% (v/v) fetal bovine serum (FBS) (Sigma, St. Louis, Mo., USA). […] At the end of the incubation period, adherent cells were detached by trypsinization and the number of viable cells was counted using trypan blue dye exclusion test and a hemocytometer. […]
Write down the numeric answer in % and omit the unit.

Query: Find the measured inhibition at 0.1 µM of CC1=C(/C=C/C(C)=C/C=C/C(C)=C\C(=O)N[C@@H](CS(=O)(=O)O)C(=O)O)C(C)(C)CCC1 [Compound II, N-(13-cis-Retinoyl)-L-cysteic acid] and report it.
Result: 46

Query: Find the measured inhibition at 0.1 µM of CC1=C(/C=C/C(C)=C/C=C/C(C)=C/C(=O)N[C@@H](CCS(=O)(=O)O)C(=O)O)C(C)(C)CCC1 and report it.
Result: 34.4

Query: Find the measured inhibition at 0.1 µM of CC1=C(/C=C/C(C)=C/C=C/C(C)=C\C(=O)N[C@@H](CS(=O)O)C(=O)O)C(C)(C)CCC1 and report it.
Result: 25.8
